Reference source: patent US20260209362A1

% cells bound values, listed per item
experimental-system: T1, human IL-12Rβ2 (human, UniProt Q99665 24-862)
T1 construct: Expressed on HEK293T cells transiently transfected with a pcDNA3 plasmid (Genscript clone OHu21785); also called hIL-12RB2; IL-12 receptor β2 subunit
T1 sequence: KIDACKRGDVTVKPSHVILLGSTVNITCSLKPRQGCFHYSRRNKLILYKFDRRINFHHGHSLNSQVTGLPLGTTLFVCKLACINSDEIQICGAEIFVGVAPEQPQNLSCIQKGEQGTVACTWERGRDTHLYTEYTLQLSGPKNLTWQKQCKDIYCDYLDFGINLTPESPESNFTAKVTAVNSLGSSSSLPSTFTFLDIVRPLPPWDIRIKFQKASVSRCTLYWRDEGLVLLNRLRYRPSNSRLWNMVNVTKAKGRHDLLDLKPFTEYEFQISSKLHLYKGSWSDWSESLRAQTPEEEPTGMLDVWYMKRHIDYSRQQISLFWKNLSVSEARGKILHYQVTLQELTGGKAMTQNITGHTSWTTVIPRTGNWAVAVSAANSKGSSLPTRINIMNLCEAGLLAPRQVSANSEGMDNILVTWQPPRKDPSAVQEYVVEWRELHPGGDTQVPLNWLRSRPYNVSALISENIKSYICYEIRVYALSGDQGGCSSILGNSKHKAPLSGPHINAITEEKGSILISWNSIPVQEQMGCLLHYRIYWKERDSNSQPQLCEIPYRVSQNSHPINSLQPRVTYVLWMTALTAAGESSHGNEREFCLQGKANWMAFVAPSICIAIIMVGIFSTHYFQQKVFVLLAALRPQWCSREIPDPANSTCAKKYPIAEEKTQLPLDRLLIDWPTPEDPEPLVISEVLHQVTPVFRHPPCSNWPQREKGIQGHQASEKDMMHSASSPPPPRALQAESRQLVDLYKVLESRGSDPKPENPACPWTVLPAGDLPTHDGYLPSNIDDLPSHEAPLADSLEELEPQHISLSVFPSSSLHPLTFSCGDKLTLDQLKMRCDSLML
measurement-notes: flow cytometry, P.E. on transfected HEK293T cells
The reply should contain only the number, in %.

[ask] % cells bound for anti-IL-12Rβ2 VHH clone 3CRHM240 (VHH, not shown: small tags and cut ends, periplasmic extract; also called 21065) VHH: QVQLQESGGGSVQAGGSLRLSCAVSGRTVSDYAMGWFRQAPGKEREFVVAMSSSETTVYTNSVKGRITISRDNAKNAVYLQMNALKPEDTAVYYCSMGPITTFQGLARQNEYHYWGQGTQVTVSS ?
[reply] 33.7

---
[ask] % cells bound for anti-IL-12Rβ2 VHH clone 2CRH82 (VHH, not shown: small tags and cut ends, periplasmic extract) VHH: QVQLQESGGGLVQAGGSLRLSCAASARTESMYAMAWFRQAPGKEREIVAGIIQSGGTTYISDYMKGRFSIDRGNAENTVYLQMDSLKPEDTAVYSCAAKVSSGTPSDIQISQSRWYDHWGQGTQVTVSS ?
[reply] 40.1
